- Test system: human red blood cells
- test-protocol: Hemolytic activity
- Assay type: cell-based
- condition-details: red cells of human, 18 h, 25
Square brackets hold non-standard residues; d marks the D form. Peptide text beside a SMILES is read from it.
quantity-name: Hemolysis percent, 25 μM (%)
Reply numerically in %, unit not repeated.

>  <compound>
CC[C@@H](C)[C@@H](NC(=O)[C@@H](Cc1c[nH]c2ccccc12)NC(=O)[C@H](NC(=O)[C@@H](CC(C)C)NC(=O)[C@@H](Cc1c[nH]c2ccccc12)NC(=O)[C@H](N)CC(=O)O)C(C)C)C(=O)N[C@H](Cc1c[nH]c2ccccc12)C(=O)N[C@H](CCCNC(=N)N)C(=O)N[C@H](CCCNC(=N)N)C(=O)N[C@H](CCCNC(=N)N)C(N)=O [WCopW36] (H-[dD][dW][dL][dV][dW][dI][dW][dR][dR][dR]-NH2)

>  <Hemolysis percent, 25 μM, %>
4.03

$$$$

Here is the next item to consider.
Hello, please tell me recorded Hemolysis percent, 25 μM for this one: CC[C@@H](C)[C@@H](NC(=O)[C@@H](Cc1c[nH]c2ccccc12)NC(=O)[C@H](NC(=O)[C@@H](CC(C)C)NC(=O)[C@H](N)Cc1c[nH]c2ccccc12)C(C)C)C(=O)N[C@H](Cc1ccc(O)cc1)C(=O)N[C@H](CC(C)C)C(=O)N[C@H](CCCNC(=N)N)C(=O)N[C@H](CCCCN)C(=O)N[C@H](CCCCN)C(=O)N[C@H](CCCNC(=N)N)C(N)=O [WCopWVY] (H-[dW][dL][dV][dW][dI][dY][dL][dR][dK][dK][dR]-NH2)
2.47

====

- Tested on: human red blood cells
- test-protocol: Hemolytic activity
- Type: cell-based
- condition-details: red cells of human, 18 h, 100
Square brackets hold non-standard residues; d marks the D form. Peptide text beside a SMILES is read from it.
quantity-name: Hemolysis percent, 100 μM
The reply must contain the numeric value and, after it, the unit.

Consider the reported Hemolysis percent, 100 μM for these molecules:
>  <molecule>
CC[C@@H](C)[C@@H](NC(=O)[C@@H](CC(C)C)NC(=O)[C@H](N)Cc1c[nH]c2ccccc12)C(=O)N[C@H](Cc1c[nH]c2ccccc12)C(=O)N[C@@H](C(=O)N[C@H](Cc1ccc(O)cc1)C(=O)N[C@H](CCCNC(=N)N)C(=O)N[C@H](CCCCN)C(=O)N[C@H](CCCCN)C(=O)N[C@H](CCCNC(=N)N)C(N)=O)C(C)C [WCopW27] (H-[dW][dL][dI][dW][dV][dY][dR][dK][dK][dR]-NH2)

>  <Hemolysis percent, 100 μM>
7.43%

$$$$
>  <molecule>
CC[C@@H](C)[C@@H](NC(=O)[C@@H](Cc1c[nH]c2ccccc12)NC(=O)[C@@H](CC(C)C)NC(=O)[C@H](N)CC(C)C)C(=O)N[C@H](C)C(=O)N[C@H](CC(C)C)C(=O)N[C@H](CCCCN)C(=O)N[C@H](CCCCN)C(=O)N[C@H](CCCCN)C(=O)N[C@H](CCCCN)C(N)=O [WCopW12] (H-[dL][dL][dW][dI][dA][dL][dK][dK][dK][dK]-NH2)

>  <Hemolysis percent, 100 μM>
0.98%

$$$$

Hello, please tell me recorded Hemolysis percent, 100 μM for this one: CC[C@@H](C)[C@@H](NC(=O)[C@@H](Cc1c[nH]c2ccccc12)NC(=O)[C@@H](C)NC(=O)[C@@H](C)NC(=O)[C@H](N)Cc1c[nH]c2ccccc12)C(=O)NCC(=O)N[C@H](CC(C)C)C(=O)N[C@H](CCCNC(=N)N)C(=O)N[C@H](CCCCN)C(=O)N[C@H](CCCCN)C(=O)N[C@H](CCCNC(=N)N)C(N)=O [WCopW20] (H-[dW][dA][dA][dW][dI]G[dL][dR][dK][dK][dR]-NH2)
0.45%

====

- Tested on: human red blood cells
- test-protocol: Hemolytic activity
- Format: cell-based
- condition-details: red cells of human, 18 h, 100
Square brackets hold non-standard residues; d marks the D form. Peptide text beside a SMILES is read from it.
Parameter threshold = 0.4%. Response is Condition met when Hemolysis percent, 100 μM meets or exceeds it, else Condition not met.

// known answers, use as guide
>  <compound>
CC[C@@H](C)[C@@H](NC(=O)[C@@H](Cc1c[nH]c2ccccc12)NC(=O)[C@H](NC(=O)[C@@H](CC(C)C)NC(=O)[C@H](N)Cc1c[nH]c2ccccc12)C(C)C)C(=O)N[C@H](Cc1ccc(O)cc1)C(=O)N[C@@H](C(=O)N[C@H](CCCNC(=N)N)C(=O)N[C@H](CCCCN)C(=O)N[C@H](CCCCN)C(=O)N[C@H](CCCNC(=N)N)C(N)=O)C(C)C [WCopWVY3] (H-[dW][dL][dV][dW][dI][dY][dV][dR][dK][dK][dR]-NH2)

>  <class>
Condition met

$$$$
>  <compound>
CCCCCCCCCC(=O)N[C@@H](Cc1c[nH]c2ccccc12)C(=O)N[C@H](CC(N)=O)C(=O)N[C@@H](CC(=O)O)C(=O)N[C@@H]1C(=O)NCC(=O)N[C@@H](CCCN)C(=O)N[C@@H](CC(=O)O)C(=O)N[C@H](C)C(=O)N[C@@H](CC(=O)O)C(=O)NCC(=O)N[C@H](CO)C(=O)N[C@@H]([C@H](C)CC(=O)O)C(=O)N[C@@H](CC(=O)c2ccccc2N)C(=O)O[C@@H]1C [Daptomycin, reference compound]

>  <class>
Condition not met

$$$$
>  <compound>
CC[C@@H](C)[C@@H](NC(=O)[C@@H](Cc1c[nH]c2ccccc12)NC(=O)[C@@H](CC(C)C)NC(=O)[C@@H](CC(C)C)NC(=O)[C@H](N)Cc1c[nH]c2ccccc12)C(=O)N[C@H](C)C(=O)N[C@H](CC(C)C)C(=O)N[C@H](CCCNC(=N)N)C(=O)N[C@H](CCCCN)C(=O)N[C@H](CCCCN)C(=O)N[C@H](CCCNC(=N)N)C(N)=O [WCopW3] (H-[dW][dL][dL][dW][dI][dA][dL][dR][dK][dK][dR]-NH2)

>  <class>
Condition met

$$$$
>  <compound>
CC[C@@H](C)[C@@H](NC(=O)[C@@H](Cc1c[nH]c2ccccc12)NC(=O)[C@@H](CC(C)C)NC(=O)[C@H](N)CC(C)C)C(=O)NCC(=O)N[C@H](CC(C)C)C(=O)N[C@H](CCCNC(=N)N)C(=O)N[C@H](CCCCN)C(=O)N[C@H](CCCCN)C(=O)N[C@H](CCCNC(=N)N)C(N)=O [WCopW13] (H-[dL][dL][dW][dI]G[dL][dR][dK][dK][dR]-NH2)

>  <class>
Condition met

$$$$

Moving on to the next compound.
Has CC(C)C[C@@H](NC(=O)[C@H](N)Cc1c[nH]c2ccccc12)C(=O)N[C@@H](C(=O)N[C@H](Cc1c[nH]c2ccccc12)C(=O)N[C@H](CO)C(=O)N[C@H](Cc1c[nH]c2ccccc12)C(=O)N[C@H](CCCNC(=N)N)C(=O)N[C@H](CCCNC(=N)N)C(=O)N[C@H](CCCNC(=N)N)C(N)=O)C(C)C [WCopW39] (H-[dW][dL][dV][dW][dS][dW][dR][dR][dR]-NH2) a recorded Hemolysis percent, 100 μM greater than or equal to 0.4%?
Condition not met

====

- System: human red blood cells
- test-protocol: Hemolytic activity
- Type: cell-based
- condition-details: red cells of human, 18 h, 50
Square brackets hold non-standard residues; d marks the D form. Peptide text beside a SMILES is read from it.
quantity-name: Hemolysis percent, 50 μM (%)
Reply numerically in %, unit not repeated.

>  <compound>
CC[C@@H](C)[C@@H](NC(=O)[C@@H](Cc1c[nH]c2ccccc12)NC(=O)[C@@H](CC(C)C)NC(=O)[C@@H](CC(C)C)NC(=O)[C@H](N)Cc1c[nH]c2ccccc12)C(=O)N[C@H](C)C(=O)N[C@H](CC(C)C)C(=O)N[C@H](CCCNC(=N)N)C(=O)N[C@H](CCCCN)C(=O)N[C@H](CCCCN)C(N)=O [WCopW6] (H-[dW][dL][dL][dW][dI][dA][dL][dR][dK][dK]-NH2)

>  <units-of-measure>
%

>  <reported>
7.05

$$$$

Hello, please tell me recorded Hemolysis percent, 50 μM for this one: CC(C)C[C@@H](NC(=O)[C@H](N)Cc1c[nH]c2ccccc12)C(=O)N[C@@H](C(=O)N[C@H](Cc1c[nH]c2ccccc12)C(=O)N[C@H](CC(=O)O)C(=O)N[C@H](Cc1c[nH]c2ccccc12)C(=O)N[C@H](CCCNC(=N)N)C(=O)N[C@H](CCCNC(=N)N)C(=O)N[C@H](CCCNC(=N)N)C(N)=O)C(C)C [WCopW38] (H-[dW][dL][dV][dW][dD][dW][dR][dR][dR]-NH2)
0.06
